Answer each item with its documented MIC.
System: Enterococcus faecalis
Test: Antibacterial activity against Enterococcus faecalis ATCC 49533 measured after overnight incubation by broth double-dilution method
Format: functional

Entry under test: `O=c1c2ccccc2sn1CCc1ccccc1` . Its MIC was > 125 µg/mL

Entry under test: `O=c1c2ccccc2sn1-c1ccc(Br)cc1` . Its MIC was 15.6 µg/mL

Entry under test: `O=c1c2ccccc2sn1-c1ccccn1` . Its MIC was > 125 µg/mL

Entry under test: `CC(C)c1cccc(-n2sc3ccccc3c2=O)c1` . Its MIC was > 125 µg/mL

Entry under test: `O=c1c2ccccc2sn1C1CCCCCCC1` . Its MIC was 15.6 µg/mL

Entry under test: `CCCCCCn1sc2ccccc2c1=O` . Its MIC was > 125 µg/mL

Entry under test: `CCCCCCCCCCCCn1sc2ccccc2c1=O` . Its MIC was > 125 µg/mL

Entry under test: `CC(C)Cn1sc2ccccc2c1=O` . Its MIC was 15.6 µg/mL

Entry under test: NCC[C@H](O)C(=O)N[C@@H]1C[C@H](N)[C@@H](O[C@H]2O[C@H](CN)[C@@H](O)[C@H](O)[C@H]2O)[C@H](O)[C@H]1O[C@H]1O[C@H](CO)[C@@H](O)[C@H](N)[C@H]1O [AMIKACIN] . Its MIC was > 125 µg/mL

Entry under test: `O=c1c2ccccc2sn1-c1cccc2ccccc12` . Its MIC was > 125 µg/mL

Entry under test: `CC(C)CCn1sc2ccccc2c1=O` . Its MIC was 15.6 µg/mL

Entry under test: `O=c1c2ccccc2sn1-c1cccc(Br)c1` . Its MIC was > 125 µg/mL

Entry under test: `CCCCCCCCn1sc2ccccc2c1=O` . Its MIC was > 125 µg/mL

Entry under test: `O=c1c2ccccc2sn1CCCc1ccccc1` . Its MIC was > 125 µg/mL

Entry under test: `O=c1c2ccccc2sn1-c1ccc(F)cc1` . Its MIC was > 125 µg/mL

Entry under test: `O=c1c2ccccc2sn1C1CCCC1` . Its MIC was > 125 µg/mL

Entry under test: CC(C)Cn1c(=O)c2ccccc2[s+]1[O-] (centres undefined) . Its MIC was > 125 µg/mL

Entry under test: `CC(C)c1ccc(-n2sc3ccccc3c2=O)cc1` . Its MIC was 62.5 µg/mL

Entry under test: `Cc1cc(C)cc(-n2sc3ccccc3c2=O)c1` . Its MIC was 15.6 µg/mL

Entry under test: O=c1c2ccccc2[s+]([O-])n1C1CCCCCCC1 (centres undefined) . Its MIC was > 125 µg/mL

Entry under test: CC(C)CCn1c(=O)c2ccccc2[s+]1[O-] (centres undefined) . Its MIC was > 125 µg/mL

Entry under test: `COc1cc(OC)cc(-n2sc3ccccc3c2=O)c1` . Its MIC was 7.8 µg/mL

Entry under test: `C#Cc1ccc(-n2sc3ccccc3c2=O)cc1` . Its MIC was < 125 µg/mL

Entry under test: `O=c1c2ccccc2sn1C1CCCCC1` . Its MIC was > 125 µg/mL

Entry under test: `CC(C)(C)n1sc2ccccc2c1=O` . Its MIC was 125 µg/mL

Entry under test: O=c1c2ccccc2[se]n1-c1ccccc1 [EBSELEN] . Its MIC was ≤ 0.25 µg/mL

Entry under test: `O=c1c2ccccc2sn1-c1ccc(Cl)cc1` . Its MIC was > 125 µg/mL

Entry under test: `O=c1c2ccccc2sn1C1CCCCCC1` . Its MIC was > 125 µg/mL

Entry under test: `CCCCCn1sc2ccccc2c1=O` . Its MIC was > 125 µg/mL
